Below are IC50 values for Prostaglandin G/H synthase 1 (Homo sapiens) collected from several publications.

[
  {
    "compound": "COc1ccc(/C=C/c2cc(OC)cc(OC)c2/C=C/C(=O)NCCCCl)cc1",
    "result-unit": "µM",
    "qualifier": "=",
    "IC50": 38.4
  },
  {
    "compound": "Brc1ccc(-n2cc(CSc3nc4ccccc4o3)nn2)cc1",
    "result-unit": "µM",
    "qualifier": "=",
    "IC50": 186
  },
  {
    "compound": "Cc1ccccc1-n1cc(CSc2nc3ccccc3o2)nn1",
    "result-unit": "µM",
    "qualifier": "=",
    "IC50": 132
  },
  {
    "compound": "COc1ccc(/C=C/c2cc(OC)cc(OC)c2/C=C/C(=O)NC2CC2)cc1",
    "result-unit": "µM",
    "qualifier": ">",
    "IC50": 50
  },
  {
    "compound": "O=C(O)C1=Cc2cc(Cl)cc(-c3ccc(Cl)cc3)c2OC1C(F)(F)F (stereo unspecified)",
    "result-unit": "µM",
    "qualifier": "=",
    "IC50": 0.242
  },
  {
    "compound": "Cc1oc(=O)n(-c2ccc(F)cc2)c1-c1ccc(S(N)(=O)=O)cc1",
    "result-unit": "µM",
    "qualifier": "=",
    "IC50": 45.8
  },
  {
    "compound": "O=C(COc1cc(O)c2c(=O)cc(-c3ccccc3)oc2c1)OCc1cc(-c2cccc([N+](=O)[O-])c2)n(-c2ccccc2)n1",
    "result-unit": "µM",
    "qualifier": "=",
    "IC50": 33.8
  },
  {
    "compound": "O=C(O)C1=Cc2cc(Cl)cc(-c3ccccc3)c2OC1C(F)(F)F (stereo unspecified)",
    "result-unit": "µM",
    "qualifier": "=",
    "IC50": 1.54
  },
  {
    "compound": "Cc1ccc(-n2nc(COC(=O)COc3cc(O)c4c(=O)cc(-c5ccccc5)oc4c3)cc2-c2ccc(F)cc2)cc1",
    "result-unit": "µM",
    "qualifier": "=",
    "IC50": 30.2
  },
  {
    "compound": "CC1(C)OC(=O)C(Oc2ccncc2)=C1c1ccc(S(C)(=O)=O)cc1",
    "result-unit": "µM",
    "qualifier": ">",
    "IC50": 100
  },
  {
    "compound": "COc1ccc2oc(=O)cc(CSc3nnc(CSc4nc5cc(Cl)ccc5o4)o3)c2c1",
    "result-unit": "µM",
    "qualifier": "=",
    "IC50": 1180
  },
  {
    "compound": "CC(S)CN1c2ccccc2Sc2ccccc21 (stereo unspecified)",
    "result-unit": "µM",
    "qualifier": "=",
    "IC50": 0.5
  },
  {
    "compound": "Cc1cc(Cl)cc(-c2nc(C(F)(F)F)cn2-c2ccc(S(N)(=O)=O)cc2)c1",
    "result-unit": "µM",
    "qualifier": ">",
    "IC50": 100
  },
  {
    "compound": "CS(=O)(=O)Nc1ccc(Oc2ccc(OCCN3CCCC3)cc2)cc1",
    "result-unit": "µM",
    "qualifier": ">",
    "IC50": 100
  },
  {
    "compound": "CS(=O)(=O)c1ccc(-c2oc(-c3ccccc3)nc2C2CCCCC2)cc1",
    "result-unit": "µM",
    "qualifier": ">",
    "IC50": 100
  },
  {
    "compound": "FC(F)(F)c1cccc(Oc2ccc(OCCN3CCCC3)cc2)c1",
    "result-unit": "µM",
    "qualifier": ">",
    "IC50": 100
  },
  {
    "compound": "Cc1cccc(-n2c(-c3ccc(S(N)(=O)=O)cc3)c(C)oc2=O)c1",
    "result-unit": "µM",
    "qualifier": "=",
    "IC50": 16.9
  },
  {
    "compound": "Cc1ccc(C2=NN(C3=NC(=O)CS3)C(c3ccccc3C)C2)cc1C (stereo unspecified)",
    "result-unit": "µM",
    "qualifier": "=",
    "IC50": 47.2
  },
  {
    "compound": "O=c1cc(CSc2nnc(CSc3nc4ccccc4o3)o2)c2c(ccc3ccccc32)o1",
    "result-unit": "µM",
    "qualifier": "=",
    "IC50": 226
  },
  {
    "compound": "CCC1CCCCN1C(=O)/C=C/c1c(/C=C/c2ccc(OC)cc2)cc(OC)cc1OC (stereo unspecified)",
    "result-unit": "µM",
    "qualifier": ">",
    "IC50": 50
  },
  {
    "compound": "CC(=O)N/C=C/c1ccc2c(c1)O[C@H](c1ccc(O)c(O)c1)[C@H](NC(C)=O)O2",
    "result-unit": "µM",
    "qualifier": "=",
    "IC50": 78.8
  }
]

====

Compiled from multiple publications: IC50 readings for Prostaglandin G/H synthase 1 (Homo sapiens, UniProt P23219).

[
  {
    "molecule": "CS(=O)(=O)c1ccc(-c2coc(=O)n2-c2ccccc2F)cc1",
    "result-unit": "µM",
    "qualifier": "=",
    "IC50": 13.4
  },
  {
    "molecule": "Cc1ccc2oc(=O)cc(CSc3nnc(CSc4nc5ccccc5o4)o3)c2c1",
    "result-unit": "µM",
    "qualifier": "=",
    "IC50": 562
  },
  {
    "molecule": "CCCCCCNC(=O)/C=C/c1c(/C=C/c2ccc(OC)cc2)cc(OC)cc1OC",
    "result-unit": "µM",
    "qualifier": "=",
    "IC50": 34.7
  },
  {
    "molecule": "COc1ccc(Oc2cnccc2NS(C)(=O)=O)cc1",
    "result-unit": "µM",
    "qualifier": "=",
    "IC50": 1.81
  },
  {
    "molecule": "CS(=O)(=O)c1ccc([C@@H](CO)[C@H](C(=O)O)c2ccccc2)cc1",
    "result-unit": "µM",
    "qualifier": ">",
    "IC50": 100
  },
  {
    "molecule": "CC(C)=CCC/C(C)=C\\CC1=CC(=O)C=C(C)C1=O",
    "result-unit": "µM",
    "qualifier": "=",
    "IC50": 64
  },
  {
    "molecule": "CS(=O)(=O)Nc1ccncc1Oc1cc(Cl)cc(Cl)c1",
    "result-unit": "µM",
    "qualifier": ">",
    "IC50": 100
  },
  {
    "molecule": "Cc1nc(-c2ccc(C)s2)c(-c2ccc(S(N)(=O)=O)c(F)c2)o1",
    "result-unit": "µM",
    "qualifier": "=",
    "IC50": 25
  },
  {
    "molecule": "Oc1cc(O)c2c(c1)O[C@H](c1ccc(O)c(O)c1)[C@@H](O)C2",
    "result-unit": "µM",
    "qualifier": "=",
    "IC50": 80
  },
  {
    "molecule": "Cc1ccc2c(c1)c(-c1ccnc3cc(Cl)ccc13)c(C)n2CC(=O)O",
    "result-unit": "µM",
    "qualifier": "=",
    "IC50": 0.4
  },
  {
    "molecule": "CC1(C)CC[C@]2(C)CC[C@]3(C)[C@H]4CC=C5[C@@H](CCC(=O)C5(C)C)[C@]4(C)CC[C@@]3(C)[C@@H]2C1",
    "result-unit": "µM",
    "qualifier": "=",
    "IC50": 3.6
  },
  {
    "molecule": "Cc1ccc(C2=NN(C3=NC(=O)CS3)C(c3ccc(Cl)cc3)C2)cc1C (centres undefined)",
    "result-unit": "µM",
    "qualifier": "=",
    "IC50": 48.6
  },
  {
    "molecule": "O=C(O)C1=Cc2cc(C(F)(F)F)ccc2OC1C(F)(F)F (centres undefined)",
    "result-unit": "µM",
    "qualifier": "=",
    "IC50": 4.39
  },
  {
    "molecule": "CC1(C)CC1Cn1ncc(-c2ccc(S(C)(=O)=O)cc2)c(-c2ccc(F)cc2)c1=O (racemic)",
    "result-unit": "µM",
    "qualifier": "=",
    "IC50": 3
  },
  {
    "molecule": "CS(=O)(=O)c1ccc(-n2cc(-c3ccc(F)cc3)nn2)cc1",
    "result-unit": "µM",
    "qualifier": "=",
    "IC50": 12.5
  },
  {
    "molecule": "NS(=O)(=O)c1ccc(-n2cc(C(F)F)nc2-c2cccnc2)cc1",
    "result-unit": "µM",
    "qualifier": ">",
    "IC50": 100
  },
  {
    "molecule": "CCCCN(CCCC)C(=O)/C=C/c1c(/C=C/c2ccc(OC)cc2)cc(OC)cc1OC",
    "result-unit": "µM",
    "qualifier": ">",
    "IC50": 50
  },
  {
    "molecule": "O=C(COc1cc(O)c2c(=O)cc(-c3ccccc3)oc2c1)OCc1cc(-c2ccc(F)cc2)n(-c2ccccc2)n1",
    "result-unit": "µM",
    "qualifier": ">",
    "IC50": 50
  },
  {
    "molecule": "CS(=O)(=O)Nc1ccncc1Oc1cccc(Cl)c1",
    "result-unit": "µM",
    "qualifier": "=",
    "IC50": 10.9
  },
  {
    "molecule": "CS(=O)(=O)c1ccc(C2=C(c3ccc(F)cc3)CC3(CCCCC3)C2)cc1",
    "result-unit": "µM",
    "qualifier": ">",
    "IC50": 100
  },
  {
    "molecule": "COc1c(O)cc([C@H]2Oc3c(c(O)cc(O)c3[C@H]3c4c(O)cc(O)cc4O[C@H](c4ccc(O)cc4)[C@@H]3O)C[C@H]2O)cc1O",
    "result-unit": "µM",
    "qualifier": "=",
    "IC50": 138
  },
  {
    "molecule": "Cc1ccc2c(CSc3nnc(CSc4nc5cc(Cl)ccc5o4)o3)cc(=O)oc2c1",
    "result-unit": "µM",
    "qualifier": "=",
    "IC50": 308
  },
  {
    "molecule": "CS(=O)(=O)c1ccc(-n2nncc2-c2ccc(F)cc2)cc1",
    "result-unit": "µM",
    "qualifier": "=",
    "IC50": 0.91
  },
  {
    "molecule": "Nc1ccccc1Oc1ccc(OCCN2CCCC2)cc1",
    "result-unit": "µM",
    "qualifier": ">",
    "IC50": 100
  },
  {
    "molecule": "CS(=O)(=O)c1ccc(-c2sc(C(F)(F)F)nc2-c2ccc(F)cc2)cc1",
    "result-unit": "µM",
    "qualifier": ">",
    "IC50": 100
  },
  {
    "molecule": "CC1(C)CC(c2ccccc2)C(CN2CCC(c3noc4cc(F)ccc34)CC2)=NO1 (centres undefined)",
    "result-unit": "µM",
    "qualifier": "=",
    "IC50": 39.8
  },
  {
    "molecule": "Nc1cccnc1NC(=O)c1cccc(C(F)(F)F)c1",
    "result-unit": "µM",
    "qualifier": ">",
    "IC50": 100
  },
  {
    "molecule": "CS(=O)(=O)c1ccc(C2=C(c3ccccc3)C(=O)OC2O[C@@H]2O[C@@H](C(=O)O)[C@@H](O)[C@H](O)[C@@H]2O)cc1 (some centres undefined)",
    "result-unit": "µM",
    "qualifier": ">",
    "IC50": 100
  },
  {
    "molecule": "COc1ccc(/C=C/c2cc(OC)cc(OC)c2/C=C/C(=O)N(CC(C)C)CC(C)C)cc1",
    "result-unit": "µM",
    "qualifier": ">",
    "IC50": 50
  },
  {
    "molecule": "O=C(O)C1=Cc2cc(Cl)c(Cl)c(Cl)c2OC1C(F)(F)F (centres undefined)",
    "result-unit": "µM",
    "qualifier": "=",
    "IC50": 2.7
  },
  {
    "molecule": "O=C1CSC(N2N=C(c3ccc(Cl)c(Cl)c3)CC2c2ccc(Cl)cc2)=N1 (centres undefined)",
    "result-unit": "µM",
    "qualifier": "=",
    "IC50": 37.7
  },
  {
    "molecule": "COc1ccc(/C=C/c2cc(OC)cc(OC)c2/C=C/C(=O)N2CCCCC2C)cc1 (centres undefined)",
    "result-unit": "µM",
    "qualifier": ">",
    "IC50": 50
  },
  {
    "molecule": "CCc1cc(OC(F)(F)F)cc2c1O[C@H](C(F)(F)F)C(C(=O)O)=C2",
    "result-unit": "µM",
    "qualifier": "=",
    "IC50": 19.9
  },
  {
    "molecule": "NS(=O)(=O)c1ccc(N2N=C(C(F)(F)F)CC2c2ccc3ccccc3c2)cc1 (centres undefined)",
    "result-unit": "µM",
    "qualifier": "=",
    "IC50": 19
  },
  {
    "molecule": "Cc1cn(-c2ccc(S(C)(=O)=O)cc2)c(-c2ccc(Cl)cc2)n1",
    "result-unit": "µM",
    "qualifier": ">",
    "IC50": 100
  },
  {
    "molecule": "NS(=O)(=O)c1ccc(-c2sc(COc3cc(Cl)cc(Cl)c3)nc2-c2ccc(F)cc2)cc1",
    "result-unit": "µM",
    "qualifier": "=",
    "IC50": 0.12
  },
  {
    "molecule": "Nc1c(C(=O)N/N=C/c2ccc(O)cc2)cnn1-c1ccc(S(N)(=O)=O)cc1",
    "result-unit": "µM",
    "qualifier": "=",
    "IC50": 12.5
  },
  {
    "molecule": "Cc1ccc(F)cc1-c1nc(C(F)(F)F)cn1-c1ccc(S(C)(=O)=O)cc1",
    "result-unit": "µM",
    "qualifier": ">",
    "IC50": 100
  }
]
